List of C >> N, percentage of cells values.
# Test system: GR-GFP chimera
# Measurement description: Nuclear Transfer Induction assay (NTI), diurethane ligands, CV-1 cells
# Type: cell-based
# Run conditions: ligand 5.10-8M, 4 hr
Attribute measured: C >> N, percentage of cells (%)

[
  {
    "Molecule": "C[C@@H]1C[C@H]2[C@@H]3CCC4=CC(=O)C=C[C@]4(C)[C@@]3(F)[C@@H](O)C[C@]2(C)[C@@]1(O)C(=O)CO [DEX, Dexamethasone, reference compound]",
    "Attribute measured": "C >> N, percentage of cells",
    "Reported": 0
  },
  {
    "Molecule": "Cc1oc2c(C)c3oc(=O)cc(C)c3cc2c1CNC(=O)OCCCCCCCCCCCNC(=O)OCC(=O)[C@@]1(O)[C@H](C)CC2C3CCC4=CC(=O)C=CC4(C)[C@@]3(F)C(O)CC21C (stereo partly shown)",
    "Attribute measured": "C >> N, percentage of cells",
    "Reported": 8.1
  },
  {
    "Molecule": "CC1CC2C3CCC4=CC(=O)C=CC4(C)C3(F)C(O)CC2(C)C1(O)C(=O)COC(=O)NCCOC(=O)NCCCNCCCCNCCCN (stereo not shown)",
    "Attribute measured": "C >> N, percentage of cells",
    "Reported": 19.8
  },
  {
    "Molecule": "Cc1oc2c(C)c3oc(=O)cc(C)c3cc2c1CNC(=O)OCCCCCCNC(=O)OCC(=O)[C@@]1(O)[C@H](C)CC2C3CCC4=CC(=O)C=CC4(C)[C@@]3(F)C(O)CC21C (stereo partly shown)",
    "Attribute measured": "C >> N, percentage of cells",
    "Reported": 0
  }
]

---

# Test system: GR-GFP chimera
# Measurement description: Nuclear Transfer Induction assay (NTI), diurethane ligands, CV-1 cells
# Format: cell-based
# Run conditions: ligand 5.10-7M, 4 hr
# Method: Conditions: CV-1 cells are transiently transfected with DOTAP (Boehringer-Mannheim) with an expression vector encoding a GR-GFP chimera (see 8.1). After 36 hours expression, ligand is added for 4 hr and cells are fixed and counted as given in 8.1.
Attribute measured: C = N, percentage of cells (%)

[
  {
    "Compound": "Cc1oc2c(C)c3oc(=O)cc(C)c3cc2c1CNC(=O)OCCCCCCNC(=O)OCC(=O)[C@@]1(O)[C@H](C)CC2C3CCC4=CC(=O)C=CC4(C)[C@@]3(F)C(O)CC21C (stereo partly shown)",
    "Experimental target": "GR-GFP chimera",
    "U": "%",
    "Reported": 0
  },
  {
    "Compound": "C[C@@H]1C[C@H]2[C@@H]3CCC4=CC(=O)C=C[C@]4(C)[C@@]3(F)[C@@H](O)C[C@]2(C)[C@@]1(O)C(=O)CO [DEX, Dexamethasone, reference compound]",
    "Experimental target": "GR-GFP chimera",
    "U": "%",
    "Reported": 0
  },
  {
    "Compound": "Cc1oc2c(C)c3oc(=O)cc(C)c3cc2c1CNC(=O)OCCCCCCCCCCCNC(=O)OCC(=O)[C@@]1(O)[C@H](C)CC2C3CCC4=CC(=O)C=CC4(C)[C@@]3(F)C(O)CC21C (stereo partly shown)",
    "Experimental target": "GR-GFP chimera",
    "U": "%",
    "Reported": 58.3
  },
  {
    "Compound": "CC1CC2C3CCC4=CC(=O)C=CC4(C)C3(F)C(O)CC2(C)C1(O)C(=O)COC(=O)NCCOC(=O)NCCCNCCCCNCCCN (stereo not shown)",
    "Experimental target": "GR-GFP chimera",
    "U": "%",
    "Reported": 67.4
  }
]

---

# Test system: GR-GFP chimera
# Measurement description: Nuclear Transfer Induction assay (NTI), monourethane ligands, HeLa cells
# Assay type: cell-based
# Run conditions: ligand 1.10-6M, 1 hr
Listed here are compounds together with their documented C = N, percentage of cells.

[
  {
    "Compound": "Cc1oc2c(C)c3oc(=O)cc(C)c3cc2c1CNC(=O)CCCCCCCCCCNC(=O)OCC(=O)[C@@]1(O)CCC2C3CCC4=CC(=O)CCC4(C)C3C(O)CC21C (stereo partly drawn)",
    "Experimental target": "GR-GFP chimera",
    "C = N, percentage of cells [%]": 25
  },
  {
    "Compound": "Cc1oc2c(C)c3oc(=O)cc(C)c3cc2c1CNC(=O)CCNC(=O)OCC(=O)[C@@]1(O)[C@H](C)CC2C3CCC4=CC(=O)C=CC4(C)[C@@]3(F)C(O)CC21C (stereo partly drawn)",
    "Experimental target": "GR-GFP chimera",
    "C = N, percentage of cells [%]": 60
  },
  {
    "Compound": "COC(=O)CCNC(=O)OCC(=O)[C@@]1(O)CCC2C3CCC4=CC(=O)CCC4(C)C3C(O)CC21C (stereo partly drawn)",
    "Experimental target": "GR-GFP chimera",
    "C = N, percentage of cells [%]": 2
  }
]

---

# Tested on: GR-GFP chimera
# Measurement description: Nuclear Transfer Induction assay (NTI), monourethane ligands, HeLa cells
# Format: cell-based
# Run conditions: ligand 1.10-7M, 1 hr
Threshold-based label: C < N, percentage of cells under 20% gives 1, C < N, percentage of cells not under 20% gives 0.

[
  {
    "Compound": "CC[n+]1c(-c2ccccc2)c2cc(NC(=O)CCNC(=O)OCC(=O)[C@@]3(O)CCC4C5CCC6=CC(=O)CCC6(C)C5C(O)CC43C)ccc2c2ccc(N)cc21 (stereo partly shown)",
    "Assigned class": 1
  },
  {
    "Compound": "C[C@@H]1C[C@H]2[C@@H]3CCC4=CC(=O)C=C[C@]4(C)[C@@]3(F)[C@@H](O)C[C@]2(C)[C@@]1(O)C(=O)CO [DEX, Dexamethasone, reference compound]",
    "Assigned class": 0
  },
  {
    "Compound": "Cc1oc2c(C)c3oc(=O)cc(C)c3cc2c1CNC(=O)CCNC(=O)OCC(=O)[C@@]1(O)[C@H](C)CC2C3CCC4=CC(=O)C=CC4(C)[C@@]3(F)C(O)CC21C (stereo partly shown)",
    "Assigned class": 1
  },
  {
    "Compound": "COC(=O)CCNC(=O)OCC(=O)[C@@]1(O)[C@H](C)CC2C3CCC4=CC(=O)C=CC4(C)[C@@]3(F)C(O)CC21C (stereo partly shown)",
    "Assigned class": 0
  },
  {
    "Compound": "COC(=O)CCNC(=O)OCC(=O)[C@@]1(O)CCC2C3CCC4=CC(=O)CCC4(C)C3C(O)CC21C (stereo partly shown)",
    "Assigned class": 0
  },
  {
    "Compound": "Cc1oc2c(C)c3oc(=O)cc(C)c3cc2c1CNC(=O)CCCCCCCCCCNC(=O)OCC(=O)[C@@]1(O)CCC2C3CCC4=CC(=O)CCC4(C)C3C(O)CC21C (stereo partly shown)",
    "Assigned class": 1
  },
  {
    "Compound": "Cc1oc2c(C)c3oc(=O)cc(C)c3cc2c1CNC(=O)CCNC(=O)OCC(=O)[C@@]1(O)CCC2C3CCC4=CC(=O)CCC4(C)C3C(O)CC21C (stereo partly shown)",
    "Assigned class": 1
  },
  {
    "Compound": "COC(=O)CCCCCCCCCCNC(=O)OCC(=O)[C@@]1(O)[C@H](C)CC2C3CCC4=CC(=O)C=CC4(C)[C@@]3(F)C(O)CC21C (stereo partly shown)",
    "Assigned class": 0
  },
  {
    "Compound": "CC12CCC(=O)C=C1CCC1C2C(O)CC2(C)C1CC[C@]2(O)C(=O)COC(=O)NCCC(=O)O (stereo partly shown)",
    "Assigned class": 1
  }
]

---

# System: GR-GFP chimera
# Measurement description: Nuclear Transfer Induction assay (NTI), diurethane ligands, CV-1 cells
# Format: cell-based
# Run conditions: ligand 5.10-9M, 4 hr
Attribute measured: C > N, percentage of cells (%)

[
  {
    "Compound": "Cc1oc2c(C)c3oc(=O)cc(C)c3cc2c1CNC(=O)OCCCCCCNC(=O)OCC(=O)[C@@]1(O)[C@H](C)CC2C3CCC4=CC(=O)C=CC4(C)[C@@]3(F)C(O)CC21C (stereo partly shown)",
    "Attribute measured": "C > N, percentage of cells",
    "Reported": 3.5
  },
  {
    "Compound": "Cc1oc2c(C)c3oc(=O)cc(C)c3cc2c1CNC(=O)OCCCCCCCCCCCNC(=O)OCC(=O)[C@@]1(O)[C@H](C)CC2C3CCC4=CC(=O)C=CC4(C)[C@@]3(F)C(O)CC21C (stereo partly shown)",
    "Attribute measured": "C > N, percentage of cells",
    "Reported": 52.9
  },
  {
    "Compound": "C[C@@H]1C[C@H]2[C@@H]3CCC4=CC(=O)C=C[C@]4(C)[C@@]3(F)[C@@H](O)C[C@]2(C)[C@@]1(O)C(=O)CO [DEX, Dexamethasone, reference compound]",
    "Attribute measured": "C > N, percentage of cells",
    "Reported": 0
  },
  {
    "Compound": "CC1CC2C3CCC4=CC(=O)C=CC4(C)C3(F)C(O)CC2(C)C1(O)C(=O)COC(=O)NCCOC(=O)NCCCNCCCCNCCCN (stereo not shown)",
    "Attribute measured": "C > N, percentage of cells",
    "Reported": 43.8
  }
]
